Field: Ki. Provide a value for each of the compounds that follow.
Target sequence: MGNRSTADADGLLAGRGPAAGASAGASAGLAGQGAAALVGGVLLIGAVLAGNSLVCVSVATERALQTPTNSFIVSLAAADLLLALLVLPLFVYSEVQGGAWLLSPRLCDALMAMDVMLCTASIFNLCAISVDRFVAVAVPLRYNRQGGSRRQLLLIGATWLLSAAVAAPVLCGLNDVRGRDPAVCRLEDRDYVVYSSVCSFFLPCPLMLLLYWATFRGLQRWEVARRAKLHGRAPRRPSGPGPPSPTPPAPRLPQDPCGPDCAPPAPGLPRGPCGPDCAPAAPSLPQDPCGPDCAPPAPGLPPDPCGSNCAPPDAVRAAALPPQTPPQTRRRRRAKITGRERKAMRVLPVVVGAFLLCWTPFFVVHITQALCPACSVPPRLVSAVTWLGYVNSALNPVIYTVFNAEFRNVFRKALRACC

Cn1cnc([N+](=O)[O-])c1Sc1nnc2n(CC3CC3)c(=O)c3sc(Cl)cc3n12 > 10 µM

Proceed to the following item.
Qu. Query Ki for O=c1c2sc(Cl)cc2n2c(=S)[nH]nc2n1CC1CC1
Ans. > 10 µM

* * *

ASSAY_TARGET: H2 (Homo sapiens)
Sequence (P25021 whole entry): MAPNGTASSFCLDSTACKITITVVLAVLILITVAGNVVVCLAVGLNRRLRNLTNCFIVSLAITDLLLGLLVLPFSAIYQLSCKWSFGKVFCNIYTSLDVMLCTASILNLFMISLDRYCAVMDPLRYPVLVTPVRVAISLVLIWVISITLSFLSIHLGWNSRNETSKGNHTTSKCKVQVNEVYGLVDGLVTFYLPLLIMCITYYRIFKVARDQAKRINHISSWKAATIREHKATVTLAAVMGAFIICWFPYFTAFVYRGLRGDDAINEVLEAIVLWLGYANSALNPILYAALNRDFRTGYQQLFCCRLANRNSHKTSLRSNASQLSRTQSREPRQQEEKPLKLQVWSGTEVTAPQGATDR
pKi: −log10 of the molar value.
ENDPOINT: pKi

Cn1cnc([N+](=O)[O-])c1Sc1nnc2n(CC3CC3)c(=O)c3sc(Cl)cc3n12 < 5.00

Qu. Fill in: pKi on H2 (Homo sapiens), entry O=c1c2sc(Cl)cc2n2c(=S)[nH]nc2n1CC1CC1
Ans. < 5.00
